Source of measurements: patent US20240217961A1

experiment: Approximate solubility of free form in solvents at 25° C. (manual dilution, visual observation); assay type: physicochemical; conditions: heptane, organic solvent or mixture, thermodynamic from solid, read-out: Solubility (mg/mL) at 25° C.
value.kind: solubility

compound: CN1CCC[C@H](CN2c3ccccc3Sc3ccccc32)C1 [(S)-mepazine]
value.kind: solubility
val: 10 to 14.3 mg/mL

---

assay: Approximate solubility of free form in solvents at 25° C. (manual dilution, visual observation); assay type: physicochemical; details: acetonitrile, organic solvent or mixture, thermodynamic from solid, read-out: Solubility (mg/mL) at 25° C.

molecule: CN1CCC[C@H](CN2c3ccccc3Sc3ccccc32)C1 [(S)-mepazine]
solubility: 25 to 33.3 mg/mL

---

experiment: Approximate solubility of free form in solvents at 25° C. (manual dilution, visual observation); format: physicochemical; details: dichloromethane, organic solvent or mixture, thermodynamic from solid, read-out: Solubility (mg/mL) at 25° C.

compound: CN1CCC[C@H](CN2c3ccccc3Sc3ccccc32)C1 [(S)-mepazine]
solubility: > 100 mg/mL

---

Test: Approximate solubility of free form in solvents at 25° C. (manual dilution, visual observation)
Format: physicochemical
Settings: 1,4-dioxane, organic solvent or mixture, thermodynamic from solid, read-out: Solubility (mg/mL) at 25° C.
Experimental: The experiment was conducted by manual dilution combined with visual observation at 25° C. The total volumes of solvents added were recorded.

compound: CN1CCC[C@H](CN2c3ccccc3Sc3ccccc32)C1 [(S)-mepazine]
solubility: > 100 mg/mL

---

Biological target: CYP2C8 (Homo sapiens)
Sequence (P10632 1-490): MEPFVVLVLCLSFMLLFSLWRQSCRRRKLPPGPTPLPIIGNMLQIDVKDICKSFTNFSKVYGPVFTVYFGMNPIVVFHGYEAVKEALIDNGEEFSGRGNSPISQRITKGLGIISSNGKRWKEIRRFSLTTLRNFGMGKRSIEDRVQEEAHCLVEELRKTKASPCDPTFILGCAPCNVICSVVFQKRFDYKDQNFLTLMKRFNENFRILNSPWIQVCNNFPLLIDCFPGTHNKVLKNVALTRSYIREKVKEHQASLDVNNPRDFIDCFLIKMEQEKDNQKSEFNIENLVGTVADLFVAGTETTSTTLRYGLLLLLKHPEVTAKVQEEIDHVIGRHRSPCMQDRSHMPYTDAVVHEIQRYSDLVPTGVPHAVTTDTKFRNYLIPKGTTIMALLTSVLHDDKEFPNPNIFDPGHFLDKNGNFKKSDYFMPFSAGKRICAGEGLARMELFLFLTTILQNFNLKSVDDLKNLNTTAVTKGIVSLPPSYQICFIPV
Assay: CYP phenotyping, recombinant CYP enzyme incubation
Format: in vitro ADME
Details: human; recombinant CYP2C8, 1 µM, 50 pmol/ml of CYP protein; mean ± SD, n = 3
value.kind: half-life at 1 µM (min)

molecule: CN1CCC[C@H](CN2c3ccccc3Sc3ccccc32)C1 [(S)-mepazine]
units.symbol: min
val: 57.2

---

test: Approximate solubility of free form in solvents at 25° C. (manual dilution, visual observation); type: physicochemical; conditions: 2-propanol, organic solvent or mixture, thermodynamic from solid, read-out: Solubility (mg/mL) at 25° C.
value.kind: solubility

molecule: CN1CCC[C@H](CN2c3ccccc3Sc3ccccc32)C1 [(S)-mepazine]
value.kind: solubility
val: 33.3 to 50 mg/mL
